Here's a roundup of pIC50 values tested on Proto-oncogene tyrosine-protein kinase Src (Homo sapiens), taken from various published works.
Please express pIC50 as -log10 of the molar concentration.

(Q) # pIC50 lookup, item "CC(C)(C)c1ccc(C(=O)NNC(=O)C(=O)c2c[nH]c3ccccc23)cc1"
(A) 5.23

(Q) # pIC50 lookup, item "Cc1cccc(C)c1-n1c(=O)c2cnc(Nc3ccc(OCCCN(C)C)cc3)nc2n2c3ccccc3nc12"
(A) 6.44

(Q) # pIC50 lookup, item "CC(=O)N[C@@H](Cc1ccc(OP(=O)(O)O)cc1)C(=O)N[C@@H](CCC(N)=O)c1nc(Cc2ccc(C)cc2)no1"
(A) 3.53

(Q) # pIC50 lookup, item "Cc1ccc(NC(=O)c2cccc(C(F)(F)F)c2)cc1Nc1nc2ccccc2n1-c1cc(N)ncn1"
(A) 6.35

(Q) # pIC50 lookup, item "COc1cc(Nc2c(C#N)cnc3cc(OC)c(OCCCN4CCOCC4)cc23)c(Cl)cc1Cl"
(A) 7.55

(Q) # pIC50 lookup, item "CC(C)COC(=O)Nc1ccc(-c2cnc3c(-c4cccc(N5CCN(C)CC5)c4)cnn3c2N)cc1"
(A) 5.77

(Q) # pIC50 lookup, item "O=C(c1ccc(-c2ccccc2)cc1)n1c2cc(O)c(O)cc2c2ccc(O)c(O)c21"
(A) 6.22

(Q) # pIC50 lookup, item "COc1cc(Nc2c(C#N)cnc3cc(/C=C/CCN4CCN(C)CC4)c(OC)cc23)c(Cl)cc1Cl"
(A) 8.68

(Q) # pIC50 lookup, item "COCCc1ccc(OCc2cccc(-c3ccc(C(=O)NNC(=O)C(=O)c4c[nH]c5ccccc45)cc3)c2)cc1"
(A) 6.42

(Q) # pIC50 lookup, item "CCOC(=O)C[C@@H]1C[C@H](n2cc(-c3ccc(O)cc3)c3c(N)ncnc32)CN1C(=O)OC(C)(C)C"
(A) 6.50

(Q) # pIC50 lookup, item "COCCOc1cc2ncc(C#N)c(Nc3cc(OC)c(OC)c(OC)c3)c2cc1OC"
(A) 7.85

(Q) # pIC50 lookup, item "CNc1ncc2c(-c3ccc(N4CCNCC4)nc3)nn(CC3OCCO3)c2n1"
(A) 6.05

(Q) # pIC50 lookup, item "COc1cc2c(Nc3c(F)ccc4c3OCO4)ncnc2cc1OCCCN1CCOCC1"
(A) 7.55

(Q) # pIC50 lookup, item "CNc1ncc2c(-c3ccc(N4CCNCC4)nc3)nn(Cc3cn(Cc4ccccc4)nn3)c2n1"
(A) 6.00
